test system: HLA-A11 class I molecule; experiment: class I binding assay, HLA-A11; set-up: species or system human; settings: Table 2 MAGE CTL targets, column A11; unit not given
Cut-off 0.009 on A11 (binding to class I molecule), inclusive. At or above means satisfied; below means not satisfied.

SEQUENCE ENTRY: LVQEKYLEY [Id 1072.42, MAGE-1 peptide, position 243,9-mer, motif A11]
ANSWER LABEL: satisfied

SEQUENCE ENTRY: DLVQEKYLEY [1072 40, MAGE-1 peptide, position 242, 10-mer, motif A03]
ANSWER LABEL: not satisfied

SEQUENCE ENTRY: YVIKVSARVR [Id 1072.41, MAGE-1 C-terminal peptide, position 283, 10-mer, motif A03]
ANSWER LABEL: not satisfied

Determine whether this sequence has A11 (binding to class I molecule) no lower than 0.009: ALAETSYVK [Id 1072.38, MAGE-1 C-terminal peptide, position 271,9-mer, motif A03/11]
satisfied

Determine whether this sequence has A11 (binding to class I molecule) no lower than 0.009: TSYVKVLEY [Id 1072.36, MAGE-1 C-terminal peptide, position 275,9-mer, motif A03/11]
satisfied

Determine whether this sequence has A11 (binding to class I molecule) no lower than 0.009: RALAETSYVK (RALAETSYVKVK) [Id 1072.39, MAGE-1 C-terminal peptide, position 270, 10-mer, motif A03/11]
satisfied
